Quick list: log10 IC50 per entry.
# SUBJECT OF TEST: transglutaminase 2 (TGase 2) (Homo sapiens, UniProt P21980)
# Sequence (P21980 whole entry, species assumed): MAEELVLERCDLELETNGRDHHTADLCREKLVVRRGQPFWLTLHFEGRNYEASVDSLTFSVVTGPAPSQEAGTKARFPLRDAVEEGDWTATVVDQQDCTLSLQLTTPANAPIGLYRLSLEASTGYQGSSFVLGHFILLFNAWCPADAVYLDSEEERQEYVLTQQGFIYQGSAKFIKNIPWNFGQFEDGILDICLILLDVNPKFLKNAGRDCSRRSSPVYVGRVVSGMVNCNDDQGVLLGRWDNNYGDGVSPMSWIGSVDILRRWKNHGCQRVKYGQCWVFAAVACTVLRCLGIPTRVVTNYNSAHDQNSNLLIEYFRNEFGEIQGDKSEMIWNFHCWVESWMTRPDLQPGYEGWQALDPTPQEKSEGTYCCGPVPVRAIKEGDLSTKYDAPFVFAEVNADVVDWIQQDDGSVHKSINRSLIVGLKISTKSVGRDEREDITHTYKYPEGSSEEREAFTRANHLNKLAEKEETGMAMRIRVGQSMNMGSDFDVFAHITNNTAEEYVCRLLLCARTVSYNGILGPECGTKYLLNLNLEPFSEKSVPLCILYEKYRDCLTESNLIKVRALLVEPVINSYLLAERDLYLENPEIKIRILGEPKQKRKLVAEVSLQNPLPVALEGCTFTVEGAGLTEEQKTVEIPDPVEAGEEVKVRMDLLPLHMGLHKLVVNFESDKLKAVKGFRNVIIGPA
# MEASUREMENT PROTOCOL: TGase 2 transpeptidase fluorescence assay: incorporation of KXD into N,N-dimethylated-casein (Std and FPC formats)
# Format: biochemical
# CONDITIONS USED: standard format (Std): reactions terminated after 60 min, FI recorded, four-parameter fit
In our notation, the value equals log10 of IC50 in µM.

Lookup result for CCN(CC)CCCOc1ccccc1-c1csc2nc(SCC(=O)NN)n(-c3cccc(F)c3)c(=O)c12 ; measured log10 IC50: 0.68

Lookup result for NNC(=O)CSc1nc2scc(-c3ccccc3)c2c(=O)n1-c1cccc(Cl)c1 ; measured log10 IC50: 0.18

Lookup result for Cc1sc2nc(SCCC(=O)NN)n(-c3ccccc3)c(=O)c2c1-c1ccccc1 ; measured log10 IC50: 0.11

Lookup result for Cc1csc2nc(SCC(=O)NN)n(-c3ccc(F)cc3)c(=O)c12 ; measured log10 IC50: 0.80

Lookup result for NNC(=O)CSc1nc2scc(-c3ccccc3)c2c(=O)n1-c1cccc(F)c1 ; measured log10 IC50: -0.60

Lookup result for NNC(=O)CSc1nc2scc(-c3ccccc3)c2c(=O)n1C1CCCCC1 ; measured log10 IC50: 0.41

Each recorded value in this set is attributed to patent US20060183759A1.
